The reported measurements were obtained from PubChem BioAssay AID2060899.

Tested on: 565726-208-R1-J5-PDC complex spheroids, growth inhibition;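 note: spheroids exposed to compounds for seven days before readout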
Assay: Anticancer human tumor 565726-208-R1-J5-PDC patient-derived pancreatic adenocarcinoma cell line growth inhibition [RAS]
Conditions: curve of first compound; second compound 0.0949 µM
Measured Property: IC50 (nM)
I only need the number, in nM, no unit after it.

Compound	Target	IC50 [nM]
CC(C)n1nc(-c2ccc3oc(N)nc3c2)c2c(N)ncnc21 + CCn1c(-c2cccnc2C(C)OC)c2c3cc(ccc31)N1CCOC(CC(NC(=O)C(C(C)C)N(C)C(=O)C3(F)CCN(C(=O)C#CC(C)(C)N(C)C)CC3)C(=O)N3CCCC(N3)C(=O)OCC(C)(C)C2)C1	565726-208-R1-J5-PDC complex spheroids, growth inhibition	18.8

Proceed to the following item.
Prompt: # get_value(readout='IC50', item= CC1(O)CCCC1n1c(=O)c(C(F)F)cc2cnc(NC3CCN(S(C)(=O)=O)CC3)nc21 (stereo not drawn) + CCn1c(-c2cccnc2C(C)OC)c2c3cc(ccc31)N1CCOC(CC(NC(=O)C(C(C)C)N(C)C(=O)C3(F)CCN(C(=O)C#CC(C)(C)N(C)C)CC3)C(=O)N3CCCC(N3)C(=O)OCC(C)(C)C2)C1 )
Response: 734
